- target-of-assay: Human HER3, endogenous, on human cancer cell lines (SK-Br-3, MCF7, BT-474) (human, UniProt P21860 20-1342)
- Sequence (P21860 20-1342): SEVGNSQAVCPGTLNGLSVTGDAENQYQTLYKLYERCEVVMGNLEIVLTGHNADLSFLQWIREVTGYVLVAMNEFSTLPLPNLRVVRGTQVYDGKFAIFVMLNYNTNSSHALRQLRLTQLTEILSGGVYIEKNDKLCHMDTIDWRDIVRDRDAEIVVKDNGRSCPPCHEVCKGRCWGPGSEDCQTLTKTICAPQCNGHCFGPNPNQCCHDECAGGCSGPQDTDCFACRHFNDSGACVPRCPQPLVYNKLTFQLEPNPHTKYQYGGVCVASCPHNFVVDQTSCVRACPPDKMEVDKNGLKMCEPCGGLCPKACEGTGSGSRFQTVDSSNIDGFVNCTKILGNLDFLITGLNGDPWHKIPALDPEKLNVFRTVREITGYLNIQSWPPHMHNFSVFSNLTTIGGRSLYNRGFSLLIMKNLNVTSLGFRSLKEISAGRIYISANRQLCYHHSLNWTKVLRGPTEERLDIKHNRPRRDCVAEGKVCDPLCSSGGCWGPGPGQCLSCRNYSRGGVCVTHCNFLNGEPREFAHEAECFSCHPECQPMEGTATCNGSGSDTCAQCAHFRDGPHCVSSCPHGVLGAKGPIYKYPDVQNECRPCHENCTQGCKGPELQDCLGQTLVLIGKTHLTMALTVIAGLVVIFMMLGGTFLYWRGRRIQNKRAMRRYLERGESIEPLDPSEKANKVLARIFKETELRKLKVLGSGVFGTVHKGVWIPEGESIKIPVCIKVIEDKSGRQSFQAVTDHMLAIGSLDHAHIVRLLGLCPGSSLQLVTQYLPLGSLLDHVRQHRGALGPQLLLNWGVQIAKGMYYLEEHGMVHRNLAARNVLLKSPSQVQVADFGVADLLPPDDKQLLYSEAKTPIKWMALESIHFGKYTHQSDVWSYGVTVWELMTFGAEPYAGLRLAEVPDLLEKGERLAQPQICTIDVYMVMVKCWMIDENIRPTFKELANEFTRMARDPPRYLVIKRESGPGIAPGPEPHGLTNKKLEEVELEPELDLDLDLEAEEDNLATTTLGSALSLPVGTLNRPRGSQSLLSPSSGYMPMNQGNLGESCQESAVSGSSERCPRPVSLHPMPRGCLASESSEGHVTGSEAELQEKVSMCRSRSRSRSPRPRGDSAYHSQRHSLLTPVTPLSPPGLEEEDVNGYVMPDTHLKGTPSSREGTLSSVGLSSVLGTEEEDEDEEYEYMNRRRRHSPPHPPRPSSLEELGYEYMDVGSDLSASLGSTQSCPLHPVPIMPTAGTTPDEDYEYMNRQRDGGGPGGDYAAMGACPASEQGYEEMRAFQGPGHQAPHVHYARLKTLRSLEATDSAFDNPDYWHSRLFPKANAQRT
- procedure-text: cell-based or functional assay
quantity-measured: MCF7 pAkt (S473) IC50
Report the figure along with its unit, number first.

- binder: "MOR13768 (antibody, human IgG1, kappa, V domains shown, tested as IgG) VH: QVQLVQSGAEVKKPGESLKISCKGSGYSFTSSWVAWVRQMPGKGLEWMGIIYPGQSDTIYSPSFQGQVTISADKSISTAYLQWSSLKASDTAMYYCARVHIIQPPSAWSYNAMDVWGQGTLVTVSS VL: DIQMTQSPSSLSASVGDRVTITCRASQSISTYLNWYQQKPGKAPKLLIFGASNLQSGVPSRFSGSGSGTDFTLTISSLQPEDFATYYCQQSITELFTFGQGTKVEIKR"
  MCF7 pAkt (S473) IC50: "347 pM"
- binder: "MOR12616 (antibody, human IgG1, kappa, V domains shown, tested as IgG) VH: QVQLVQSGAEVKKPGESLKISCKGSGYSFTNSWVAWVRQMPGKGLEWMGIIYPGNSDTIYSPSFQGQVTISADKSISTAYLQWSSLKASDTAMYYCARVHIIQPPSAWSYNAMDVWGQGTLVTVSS VL: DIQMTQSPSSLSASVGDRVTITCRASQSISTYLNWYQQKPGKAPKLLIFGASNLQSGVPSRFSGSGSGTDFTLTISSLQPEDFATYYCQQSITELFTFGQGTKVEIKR"
  MCF7 pAkt (S473) IC50: "442 pM"

Now for a further binder.
Need MCF7 pAkt (S473) IC50, item MOR12925 (antibody, human IgG1, kappa, V domains shown, tested as IgG) VH: QVQLVQSGAEVKKPGESLKISCKGSGYSFSNYWIAWVRQMPGKGLEWMGIIYPGNSDTIYSPSFQGQVTISADKSISTAYLQWSSLKASDTAMYYCARVHIIQPPSAWSYNAMDVWGQGTLVTVSS VL: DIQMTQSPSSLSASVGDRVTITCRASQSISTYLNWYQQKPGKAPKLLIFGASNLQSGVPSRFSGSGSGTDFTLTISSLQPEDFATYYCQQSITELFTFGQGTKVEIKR
295 pM
